Entry source: paper PMC9482650

Parameter pKd: see the listing below.
molecular target: DLG1_2, Q12959; assay: holdup assay; parameters: key: below the threshold = too weak to quantify, mostly under pKd 3.1 to 4; settings: plain residues with an end cap or a label only (N-terminal biotin on a linker: ahx)
Sequence (Q12959 314-412): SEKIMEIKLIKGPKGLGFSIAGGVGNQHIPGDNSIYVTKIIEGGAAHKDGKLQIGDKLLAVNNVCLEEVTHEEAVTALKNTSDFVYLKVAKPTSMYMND
Answer with a number only.

binder	measured result
HSATSVHTSV [MTMR1, Q13613]	4.9
ADENEQVSAV [RAPGEF6, Q8TEU7]	4.01
YNSFLSVTTV [PDZRN3, Q9UPQ7]	4.19
AKPQPVDSWV [ARVCF, O00192]	4.75

What value of measured pKd is listed for KDECVIATEV [DLL1, O00548] ?
4.37
